Data origin, for the record: a melting point compilation (Tetko et al.)

Experimental endpoint: melting point

Example entries and their recorded answers appear below.
> print(dat)
                            compound  experimental.endpoint         result
1                CC(C)(C)Nc1nnc(S)s1          melting point  164 to 166 °C
2  CS(=O)(=O)c1ccc(Cl)c(NC(=O)CCl)c1          melting point  148 to 149 °C
3            CN(C)c1ccc(NC(=S)NN)cc1          melting point  167 to 169 °C

Could you tell me melting point for each of these compounds? They are listed below.
1. N#Cc1c(SCC(=O)O)nc2c(c1-c1ccco1)CCCC2
2. CCN(CC)S(=O)(=O)c1ccc(C(=O)CBr)cc1
3. Cc1csc2nc(CCl)cc(=O)n12
4. Oc1nc(-c2ccc(Cl)cc2)cs1

209 to 211 °C
79 to 81 °C
100 to 104 °C
218 to 220 °C

Could you tell me melting point for each of these compounds? They are listed below.
1. C=CC(=O)Nc1cc(N)ccc1F
2. Fc1ccc(NCc2ccccn2)c(F)c1
3. COc1ccc(C(=O)c2ccccc2Cl)c(OC)c1
4. Cc1c(F)cc(C#N)cc1[N+](=O)[O-]
5. Cc1[nH]c2ccccc2c1CC#N
6. C=CCc1cc(OCC)ccc1O

["135 to 137 °C", "52 to 54 °C", "61 to 63 °C", "75 to 77 °C", "79 to 81 °C", "135 to 137 °C"]

Could you tell me melting point for each of these compounds? They are listed below.
1. COCc1ccc(CNC(=O)CCl)cc1
2. CCN(CC)Cc1csc(N)n1
3. O=C(O)c1ccc(F)c(S(=O)(=O)Cl)c1
4. CC(Cl)C(=O)Nc1c(Cl)cc(Cl)cc1Cl (stereo not drawn)
5. O=C(O)c1cc2ccc(-c3ccccc3)cc2[nH]1

["83 to 85 °C", "64 to 66 °C", "138 to 140 °C", "153 to 155 °C", "250 to 252 °C"]

Could you tell me melting point for each of these compounds? They are listed below.
1. CCc1ccc(C=CS(=O)(=O)Cl)cc1
2. CS(=O)(=O)Nc1ccc(S(=O)(=O)Cl)cc1
3. ClCc1nnc(-c2ccccc2)o1

1. 66 to 68 °C
2. 141 to 143 °C
3. 90 to 100 °C

Could you tell me melting point for each of these compounds? They are listed below.
1. c1nc(N2CCCC2)c2nc[nH]c2n1
2. Nc1ccc(CC(=O)Nc2ccccc2F)cc1
3. COCCOc1ccc(Cl)c(C(=O)O)n1
4. COc1cc(C)nc(NN)n1
5. CC(=O)c1ccc(OCc2nccn2C)cc1
6. Cn1cnc2cc(C=O)ccc21

1. 302 to 304 °C
2. 110 to 112 °C
3. 89 to 91 °C
4. 116 to 118 °C
5. 106 to 108 °C
6. 99 to 101 °C

Give its melting point value. Item: Cc1cccc2c(CC(=O)O)c(-c3ccccc3)[nH]c12
159 to 161 °C

---

I'd appreciate it if you could supply melting point values for the items below.

> print(dat)
                          compound         result
1  Nc1[nH]nc(-c2ccccc2)c1-c1ccccc1  141 to 143 °C
2     Fc1ccc2nc(-c3ccccn3)[nH]c2c1  159 to 161 °C

Could you tell me melting point for each of these compounds? They are listed below.
1. CC(C)(C)OC(=O)Nc1cccc2c1OCO2
2. CS(=O)(=O)N1CCCC(Cl)C1 (stereo not drawn)
3. Clc1nc(-c2ccccc2)c2ccccc2n1
4. Nc1ccc(C(=O)N2CCC(CO)CC2)cc1
5. Nc1cccnc1Oc1ccccc1

1: 89 to 91 °C; 2: 54 to 56 °C; 3: 111 to 113 °C; 4: 138 to 140 °C; 5: 107 to 109 °C

Could you tell me melting point for each of these compounds? They are listed below.
1. NN=c1ccc(C(N)=O)n[nH]1
2. Nc1ccccc1C(=O)NC1CC1
3. O=C(C(=O)c1ccc(Cl)cc1)c1ccc(Cl)cc1
4. Nc1ccccc1NS(=O)(=O)c1ccc(F)cc1
5. O=C(O)CCc1nnc(-c2cccnc2)o1
6. Nc1ccc(S(N)(=O)=O)cc1N

251 to 253 °C
135 to 136 °C
198 to 200 °C
122 to 124 °C
197 to 199 °C
145 to 154 °C

---

I'd appreciate it if you could supply melting point values for the items below.

> print(dat)
                        compound  experimental.endpoint         result
1  NS(=O)(=O)c1ccc(OCCC(=O)O)cc1          melting point  140 to 142 °C

Could you tell me melting point for each of these compounds? They are listed below.
1. Nc1cccc(Oc2ccnc3ccccc23)c1
2. CC(=O)NC(CC(N)=O)C(=O)O (stereo not drawn)
3. O=c1[nH]cnc2cc(-c3ccc(Cl)cc3)sc12
4. O=C(C1=CNCCC1)c1ccccc1

1: 114 to 116 °C; 2: 168 to 170 °C; 3: 327 to 329 °C; 4: 90 to 92 °C

Could you tell me melting point for each of these compounds? They are listed below.
1. COc1ccc(S(=O)(=O)Cl)cc1C(=O)O
2. Nc1cccc(-c2nc3ccccc3s2)c1
3. NCc1ccc(Cn2cnc3ccccc32)cc1
4. Cc1ccc2nc(C)c(C(=O)O)cc2c1

1: 142 to 144 °C; 2: 138 to 140 °C; 3: 72 to 74 °C; 4: 174 to 176 °C

Could you tell me melting point for each of these compounds? They are listed below.
1. O=C(O)CC(O)c1cc(Cl)cc(Cl)c1 (stereo not drawn)
2. Cc1nc2ccccc2n1N
3. O=C(CCn1ccnc1)Nc1cccc(C(=O)O)c1
4. CCN(CC)C(=O)Cc1ccc(N)cc1

198 to 200 °C
145 to 147 °C
216 to 218 °C
87 to 89 °C

---

I'd appreciate it if you could supply melting point values for the items below.

Example entries and their recorded answers appear below.
> print(dat)
                         compound  experimental.endpoint         result
1  CS(=O)(=O)Nc1ccc(C(F)(F)F)cc1N          melting point  126 to 128 °C
2        O=c1[nH]c2ccccc2n2cncc12          melting point  349 to 351 °C
3       Cc1nc2nnnn2c(C)c1CCC(=O)O          melting point  187 to 189 °C

Could you tell me melting point for each of these compounds? They are listed below.
1. O=C1CCNc2ccc(F)cc21
2. CC(Nc1ccc(Cl)nn1)c1ccccc1 (stereo not drawn)
3. Cc1cc(Cl)c([N+](=O)[O-])cc1S(=O)(=O)Cl
4. Cc1nn(C(F)F)c(C)c1CC(=O)O

["49 to 51 °C", "159 to 161 °C", "116 to 118 °C", "173 to 175 °C"]

Could you tell me melting point for each of these compounds? They are listed below.
1. O=C(O)CCCNS(=O)(=O)c1ccc2c(c1)CCCC2
2. CC(C)CC1CC(C(=O)O)CC(=O)N1 (stereo not drawn)
3. Brc1ccccc1Oc1cccnn1
4. CS(=O)(=O)c1ccc(Cl)s1
5. CCNC(=O)c1ccc(N)cc1
6. Cc1cc(N)nc(N2CCOCC2)n1
7. CCNC(=O)c1cccc(C)c1O
8. CC(C)NC(N)=O

["130 to 132 °C", "188 to 190 °C", "109 to 111 °C", "69 to 71 °C", "73 to 75 °C", "102 to 104 °C", "64 to 66 °C", "154 to 156 °C"]

Could you tell me melting point for each of these compounds? They are listed below.
1. CCC1(C(=O)O)CCN(C(=O)OC(C)(C)C)C1 (stereo not drawn)
2. C=CCOc1ccc(C(=O)O)cc1OC
3. O=C(Cn1cnnn1)Nc1ccccc1C(=O)O

94 to 96 °C
173 to 175 °C
194 to 196 °C

Could you tell me melting point for each of these compounds? They are listed below.
1. NC(=S)Cn1ccc(=O)[nH]c1=O
2. CC(C(=O)O)N1C(=O)C2C3CCC(O3)C2C1=O (stereo not drawn)

256 to 258 °C
189 to 191 °C

---

I'd appreciate it if you could supply melting point values for the items below.

Example entries and their recorded answers appear below.
> print(dat)
                       compound         result
1         O=C(O)CSCc1cccc(Br)c1    70 to 80 °C
2           COC(=O)c1ccc(F)cc1S    41 to 43 °C
3                 O=Cc1cccnc1Cl    50 to 54 °C
4  COc1ccc(N)cc1OCc1cn2ccccc2n1  190 to 192 °C
5   Cn1cnc(-c2ccc(C(=O)O)cc2)n1  274 to 276 °C

Could you tell me melting point for each of these compounds? They are listed below.
1. N#Cc1cc(C(F)(F)F)ccc1-n1cncn1
2. O=C(O)C=C1CCCCC1
3. Brc1ccc(OCC2CO2)cc1 (centres undefined)
4. Cc1cc(C=O)c(C)n1-c1ccc2c(c1)OCCO2
5. O=c1[nH]c(S)nc2cc(Cl)ccc12
6. O=C(O)Cc1ccc(Cl)cc1Br

["114 to 116 °C", "90 to 92 °C", "49 to 51 °C", "112 to 114 °C", "306 to 308 °C", "126 to 128 °C"]

Could you tell me melting point for each of these compounds? They are listed below.
1. O=C(O)c1cc(-c2cccc(Cl)c2)no1
2. Nc1ccc2c(c1)N(CCO)CC2
3. CNC(C)c1ccc(S(C)=O)cc1 (centres undefined)
4. N#Cc1cccc(-n2cncn2)c1
5. NC(=S)CF
6. O=C(O)CCC(NC(=O)Cc1ccc2ccccc2c1)C(=O)O (centres undefined)

1: 182 to 184 °C; 2: 59 to 61 °C; 3: 52 to 54 °C; 4: 150 to 152 °C; 5: 53 to 55 °C; 6: 173 to 175 °C

Could you tell me melting point for each of these compounds? They are listed below.
1. Sc1ccc(Cl)nn1
2. CCc1ccc(O)c(C(=O)O)c1
3. Cc1ccc2oc(=O)[nH]c2c1
4. CC1(C)C(=O)NC(=O)N1CC#N
5. Cc1ccc(S(=O)(=O)N2CCC(N)CC2)cc1
6. O=C(O)CCC1CCNCC1
7. COc1ccc(CCC(=O)NN)cc1
8. CC(C)(C)OC(=O)NCCc1nnc2n1CCCC2

1: 148 to 150 °C; 2: 118 to 120 °C; 3: 130 to 132 °C; 4: 147 to 149 °C; 5: 105 to 109 °C; 6: 275 to 277 °C; 7: 129 to 131 °C; 8: 158 to 160 °C
